# Tested on: human invasive breast cancer cells (MDA-MB-231)
# assay procedure: Cytotoxicity test (MTT assay) on MDA-MB-231 cells
# Assay type: cell-based
# test settings: ratio of 72 h IC50 values, MCF-10A over MDA-MB-231
readout type: SC, selectivity coefficient, IC50 MCF-10A/IC50 MDA-MB-231
One number for each entry.

Please look at the items below and tell me SC, selectivity coefficient, IC50 MCF-10A/IC50 MDA-MB-231 for each one, in order.
1. CN(C)N=NC#CC(C)(C)C
2. CC(C)N(N=NC#CC(C)(C)C)C(C)C
3. COCC#CN=NN(C)C
4. COCC#CN=NN(C)C(C)C
5. CC(C)N(C)N=NC#CC(C)(C)C
6. CC(C)N(C)N=NC#CCN(C)C

1.4
1.7
2.5
6.5
2.7
6.1

Please look at the items below and tell me SC, selectivity coefficient, IC50 MCF-10A/IC50 MDA-MB-231 for each one, in order.
1. CCCCC#CN=NN(C(C)C)C(C)C
2. CN(C)CC#CN=NN(C)C

1. 1.2
2. 2.4

---

# System: non-cancer human embryonic kidney cells (HEK293)
# assay procedure: Cytotoxicity test (MTT assay) on HEK293 cells
# Assay type: cell-based
# test settings: 72 h exposure
readout type: IC50 (µM)
Answers are plain numbers, in µM.

// below: answered compounds
CC(C)N(N=NC#CC(C)(C)C)C(C)C: 125
CC(C)N(C)N=NC#CC(C)(C)C: 29
CC(C)N(N=NC#Cc1ccccc1)C(C)C: 44
CN(C)N=NC#CC(C)(C)C: 19
CCCCC#CN=NN(C(C)C)C(C)C: 165
CC(C)N(C)N=NC#CCN(C)C: 21
COCC#CN=NN(C)C(C)C: 14
CN(C)CC#CN=NN(C)C: 15

Specify IC50 for `COCC#CN=NN(C)C` and stop.
24

---

# Tested on: human invasive breast cancer cells (MDA-MB-231)
# assay procedure: Cytotoxicity test (MTT assay) on MDA-MB-231 cells
# Type: cell-based
# test settings: MDA-MB-231; 72 h exposure, MTT assay, human invasive breast cancer cells
Please respond with reported IC50 for every item in the list.
Answers are plain numbers, in µM.

Please look at the items below and tell me IC50 for each one, in order.
1. CC(C)N(C)N=NC#CC(C)(C)C
2. CN(C)CC#CN=NN(C)C
3. COCC#CN=NN(C)C
4. CN(C)N=NC#CC(C)(C)C
5. COCC#CN=NN(C)C(C)C

[70, 45, 72, 38, 32]

Please look at the items below and tell me IC50 for each one, in order.
1. CC(C)N(N=NC#CC(C)(C)C)C(C)C
2. CC(C)N(C)N=NC#CCN(C)C
3. CCCCC#CN=NN(C(C)C)C(C)C

176
14
199

---

# System: human ovarian cancer cells (A2780)
# assay procedure: Cytotoxicity test (MTT assay) on A2780 cells
# Assay type: cell-based
# test settings: 72 h exposure
readout type: pIC50
Answers are plain numbers, as −log10 of the molar value.

// below: answered compounds
CN(C)N=NC#CC(C)(C)C: 4.66
CC(C)N(N=NC#Cc1ccccc1)C(C)C: 4.25

Please look at the items below and tell me pIC50 for each one, in order.
1. CC(C)N(C)N=NC#CCN(C)C
2. CN(C)CC#CN=NN(C)C
3. CC(C)N(C)N=NC#CC(C)(C)C
4. CC(C)N(N=NC#CC(C)(C)C)C(C)C

[4.47, 4.33, 4.49, 3.80]

Please look at the items below and tell me pIC50 for each one, in order.
1. COCC#CN=NN(C)C
2. COCC#CN=NN(C)C(C)C
3. CCCCC#CN=NN(C(C)C)C(C)C

[4.37, 4.70, 3.84]
